Taken from ChEMBL document CHEMBL1156686.

TARGET_DESC: Xanthine dehydrogenase/oxidase (Bos taurus, UniProt P80457)
Sequence (P80457 whole entry): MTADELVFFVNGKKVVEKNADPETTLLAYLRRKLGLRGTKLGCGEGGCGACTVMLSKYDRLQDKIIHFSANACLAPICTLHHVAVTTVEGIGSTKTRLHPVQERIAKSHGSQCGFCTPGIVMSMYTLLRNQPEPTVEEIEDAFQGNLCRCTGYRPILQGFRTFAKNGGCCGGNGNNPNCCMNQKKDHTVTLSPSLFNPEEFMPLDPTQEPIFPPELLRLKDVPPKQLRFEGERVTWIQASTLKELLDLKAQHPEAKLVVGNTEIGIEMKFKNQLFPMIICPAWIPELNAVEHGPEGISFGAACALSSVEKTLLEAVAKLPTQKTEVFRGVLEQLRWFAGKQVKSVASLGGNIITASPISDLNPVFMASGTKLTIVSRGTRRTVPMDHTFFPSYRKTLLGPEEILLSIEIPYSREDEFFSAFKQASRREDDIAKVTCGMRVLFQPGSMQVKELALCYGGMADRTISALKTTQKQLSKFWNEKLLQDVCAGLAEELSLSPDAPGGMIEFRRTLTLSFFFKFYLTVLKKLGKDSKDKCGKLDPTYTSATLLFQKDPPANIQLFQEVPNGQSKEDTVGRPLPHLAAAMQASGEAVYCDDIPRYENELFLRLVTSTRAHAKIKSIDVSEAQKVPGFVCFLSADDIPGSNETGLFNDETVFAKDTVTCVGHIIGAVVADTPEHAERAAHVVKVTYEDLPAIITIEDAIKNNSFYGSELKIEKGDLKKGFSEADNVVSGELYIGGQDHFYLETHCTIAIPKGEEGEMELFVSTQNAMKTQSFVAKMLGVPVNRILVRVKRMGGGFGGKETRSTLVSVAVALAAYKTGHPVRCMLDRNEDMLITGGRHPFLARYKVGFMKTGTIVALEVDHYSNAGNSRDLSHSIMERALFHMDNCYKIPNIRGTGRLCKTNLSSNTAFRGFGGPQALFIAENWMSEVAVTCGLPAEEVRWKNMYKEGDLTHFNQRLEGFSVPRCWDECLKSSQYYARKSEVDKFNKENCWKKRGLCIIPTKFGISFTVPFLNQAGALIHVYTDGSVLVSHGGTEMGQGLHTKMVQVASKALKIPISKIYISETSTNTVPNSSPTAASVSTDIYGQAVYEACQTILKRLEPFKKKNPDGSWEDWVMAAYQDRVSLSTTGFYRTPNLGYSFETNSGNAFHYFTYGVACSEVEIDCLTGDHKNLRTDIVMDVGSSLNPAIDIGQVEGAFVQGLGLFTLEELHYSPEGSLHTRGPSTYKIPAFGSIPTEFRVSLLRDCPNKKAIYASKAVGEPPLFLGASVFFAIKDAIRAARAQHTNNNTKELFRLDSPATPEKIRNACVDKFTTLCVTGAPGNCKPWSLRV
ASSAY_CONTEXT: cattle
READOUT_TYPE: Km (µM)
Only the number, expressed in µM, is required.

Please tell me: Km of "Nc1[nH]c(=O)ncc1Br" , system Xanthine dehydrogenase/oxidase (Bos taurus, UniProt P80457)?
32.5

GET /values?readout=Km&system=Xanthine dehydrogenase/oxidase (Bos taurus, UniProt P80457)&item= "O=c1[nH]cnc2[nH]ccc12"
45.1

// lookup Km | system=Xanthine dehydrogenase/oxidase (Bos taurus, UniProt P80457) | key= "N=C1CCCN1Cc1nc[nH]c(=O)c1Cl"
64.9

Provide value of Km for this record tested with Xanthine dehydrogenase/oxidase (Bos taurus, UniProt P80457): "O=c1ncc2cc[nH]c2[nH]1"
29.8

Item: "Nc1nc[nH]c(=O)c1Br" Test system: Xanthine dehydrogenase/oxidase (Bos taurus, UniProt P80457) Read-out: Km Value: ?
23.8

Lab request: please report Km under test system Xanthine dehydrogenase/oxidase (Bos taurus, UniProt P80457) for "Nc1ncncc1Br"
44.4

* * *

EXPERIMENT_DESCRIPTION: Inhibition of horse liver recombinant thymidine phosphorylase
Set-up: species or system Equus caballus
READOUT_TYPE: pIC50
By convention, pIC50 is the negative base-10 log of a molar concentration.

May I ask what pIC50 has been recorded for "Nc1[nH]c(=O)[nH]c(=O)c1Br" ?
4.52
